These data points were gathered from ChEMBL document CHEMBL1142891.

- Target System: Voltage-dependent T-type calcium channel subunit alpha-1G (Homo sapiens)
- Sequence (O43497 whole entry): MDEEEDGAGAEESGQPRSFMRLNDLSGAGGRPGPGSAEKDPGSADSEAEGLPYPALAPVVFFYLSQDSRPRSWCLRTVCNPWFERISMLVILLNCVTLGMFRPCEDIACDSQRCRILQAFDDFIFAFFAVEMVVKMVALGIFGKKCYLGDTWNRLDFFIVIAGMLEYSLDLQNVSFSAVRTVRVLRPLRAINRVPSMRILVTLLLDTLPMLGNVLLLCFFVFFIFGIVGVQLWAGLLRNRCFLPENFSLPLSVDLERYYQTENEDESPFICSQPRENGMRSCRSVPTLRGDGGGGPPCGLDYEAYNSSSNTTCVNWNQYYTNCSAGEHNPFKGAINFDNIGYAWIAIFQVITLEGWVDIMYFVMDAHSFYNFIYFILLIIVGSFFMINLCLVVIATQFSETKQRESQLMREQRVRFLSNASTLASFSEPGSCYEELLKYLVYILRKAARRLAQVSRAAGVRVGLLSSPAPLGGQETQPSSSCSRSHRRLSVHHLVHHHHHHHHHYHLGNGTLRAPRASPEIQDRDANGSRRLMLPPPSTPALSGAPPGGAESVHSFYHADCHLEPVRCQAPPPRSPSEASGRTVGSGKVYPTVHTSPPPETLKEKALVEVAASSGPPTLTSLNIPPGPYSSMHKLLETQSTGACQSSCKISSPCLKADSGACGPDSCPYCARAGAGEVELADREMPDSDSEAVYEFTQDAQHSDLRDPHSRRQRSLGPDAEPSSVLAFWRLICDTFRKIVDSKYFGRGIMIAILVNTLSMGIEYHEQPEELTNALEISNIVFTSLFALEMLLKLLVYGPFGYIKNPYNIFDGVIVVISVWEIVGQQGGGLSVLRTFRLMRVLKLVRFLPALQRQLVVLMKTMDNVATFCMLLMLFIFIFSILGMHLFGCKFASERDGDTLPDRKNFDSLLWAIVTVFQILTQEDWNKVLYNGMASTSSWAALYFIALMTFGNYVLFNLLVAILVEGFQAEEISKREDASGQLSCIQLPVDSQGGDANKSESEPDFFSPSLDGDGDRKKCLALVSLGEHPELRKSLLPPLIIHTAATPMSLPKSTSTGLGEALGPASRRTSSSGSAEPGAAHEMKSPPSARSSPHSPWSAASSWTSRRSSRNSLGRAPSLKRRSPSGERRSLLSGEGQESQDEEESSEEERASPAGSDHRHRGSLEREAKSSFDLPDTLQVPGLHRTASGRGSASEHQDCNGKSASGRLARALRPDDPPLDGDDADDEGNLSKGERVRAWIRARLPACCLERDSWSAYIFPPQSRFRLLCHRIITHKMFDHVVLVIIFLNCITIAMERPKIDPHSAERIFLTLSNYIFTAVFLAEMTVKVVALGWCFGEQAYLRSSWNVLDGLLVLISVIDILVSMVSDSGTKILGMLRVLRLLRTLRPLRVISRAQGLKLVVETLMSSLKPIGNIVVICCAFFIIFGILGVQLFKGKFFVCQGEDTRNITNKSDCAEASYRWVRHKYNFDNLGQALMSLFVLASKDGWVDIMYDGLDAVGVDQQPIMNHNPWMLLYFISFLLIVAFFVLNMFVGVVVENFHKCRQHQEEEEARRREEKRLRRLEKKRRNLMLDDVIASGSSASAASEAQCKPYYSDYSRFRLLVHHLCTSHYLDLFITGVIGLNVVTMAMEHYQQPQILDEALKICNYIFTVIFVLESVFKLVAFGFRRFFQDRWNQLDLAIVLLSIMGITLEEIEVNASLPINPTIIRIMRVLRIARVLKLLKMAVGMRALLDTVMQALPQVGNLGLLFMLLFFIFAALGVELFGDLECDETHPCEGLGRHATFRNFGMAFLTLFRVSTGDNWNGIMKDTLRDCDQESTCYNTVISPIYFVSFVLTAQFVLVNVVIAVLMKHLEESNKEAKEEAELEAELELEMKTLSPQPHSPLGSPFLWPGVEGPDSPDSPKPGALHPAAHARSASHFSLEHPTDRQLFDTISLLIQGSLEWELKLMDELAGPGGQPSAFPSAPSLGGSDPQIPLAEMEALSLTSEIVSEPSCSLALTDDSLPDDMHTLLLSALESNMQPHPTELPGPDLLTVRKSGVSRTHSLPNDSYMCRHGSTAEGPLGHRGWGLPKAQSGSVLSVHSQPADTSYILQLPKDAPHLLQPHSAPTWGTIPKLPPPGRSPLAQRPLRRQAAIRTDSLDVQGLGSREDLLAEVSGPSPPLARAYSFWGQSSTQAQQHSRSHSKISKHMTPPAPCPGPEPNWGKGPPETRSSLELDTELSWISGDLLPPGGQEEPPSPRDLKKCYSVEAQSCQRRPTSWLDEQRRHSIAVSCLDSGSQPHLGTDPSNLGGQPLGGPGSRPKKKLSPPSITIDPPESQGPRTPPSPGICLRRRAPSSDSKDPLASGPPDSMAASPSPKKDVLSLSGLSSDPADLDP
- Procedure Summary: Inhibition of T type calcium channel subunit alpha-1G expressed in HEK293 cells assessed as effect on T-type calcium currents by patch clamp method
Recorded Metric: IC50 (µM)
# unit: µM | format: bare number

Take a look at these entries with their results.
Test Smiles	Target System	Recorded Metric	Reported
COc1cccc(N2CCN(CCCC(=O)Nc3ccc(Cl)cc3)CC2)c1	Voltage-dependent T-type calcium channel subunit alpha-1G (Homo sapiens)	IC50	2.78
O=C(CCCN1CCN(c2ccccc2)CC1)Nc1ccc(Cl)cc1	Voltage-dependent T-type calcium channel subunit alpha-1G (Homo sapiens)	IC50	4.47
O=C(CCCCN1CCN(c2cccc(Cl)c2)CC1)Nc1ccccc1Cl	Voltage-dependent T-type calcium channel subunit alpha-1G (Homo sapiens)	IC50	1.91
O=C(CCCN1CCN(c2cccc(Cl)c2)CC1)Nc1ccc(Cl)cc1Cl	Voltage-dependent T-type calcium channel subunit alpha-1G (Homo sapiens)	IC50	1.01
O=C(CCCN1CCN(Cc2ccc(Cl)cc2)CC1)Nc1ccc(Cl)cc1Cl	Voltage-dependent T-type calcium channel subunit alpha-1G (Homo sapiens)	IC50	0.28

Okay, next one:
Query :: For the compound O=C(CCCN1CCN(Cc2cccc(Cl)c2)CC1)Nc1ccc(Cl)cc1Cl , report IC50.
Result :: 1.48
